Source of measurements: patent US20040082635A1

We begin with a simple list: items and their reported pIC50.
- target-entity: HCV polymerase (Hepatitis C virus genotype 1b, UniProt P26663)
- Construct: a region encoding NS5B (591 amino acids; J Virol 1991 Mar, 65(3), 1105-13) was amplified by PCR; 6 His (N); made in house; host or cells: Escherichia coli
- Sequence (P26663 2420-3010): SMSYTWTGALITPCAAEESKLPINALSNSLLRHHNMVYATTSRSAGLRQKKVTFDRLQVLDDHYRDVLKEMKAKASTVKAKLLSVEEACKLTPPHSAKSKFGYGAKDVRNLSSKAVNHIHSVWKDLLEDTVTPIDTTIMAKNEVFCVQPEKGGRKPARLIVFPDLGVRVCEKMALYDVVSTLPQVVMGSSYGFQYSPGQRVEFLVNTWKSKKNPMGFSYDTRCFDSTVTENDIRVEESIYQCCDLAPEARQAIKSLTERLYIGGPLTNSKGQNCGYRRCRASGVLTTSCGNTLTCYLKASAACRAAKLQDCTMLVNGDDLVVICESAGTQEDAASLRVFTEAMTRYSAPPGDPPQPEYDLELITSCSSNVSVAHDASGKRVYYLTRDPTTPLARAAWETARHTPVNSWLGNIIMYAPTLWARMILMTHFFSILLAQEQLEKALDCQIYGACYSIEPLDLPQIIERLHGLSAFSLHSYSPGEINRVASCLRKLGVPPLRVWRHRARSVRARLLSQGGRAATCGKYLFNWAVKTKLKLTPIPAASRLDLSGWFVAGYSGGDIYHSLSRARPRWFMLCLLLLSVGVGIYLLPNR
- procedure-summary: biochemical
- experimental-setup: read-out: HCV polymerase inhibitory activity IC50
Formally, pIC50 is defined as -log10 of the concentration c, with c in mol/L.

{"columns": ["molecule", "pIC50"],
 "data": [
  ["O=C(O)c1ccc2c(c1)nc(-c1ccc(OC3CCCN(Cc4ccc(Cl)cc4)C3)cc1)n2C1CCCCC1 (stereo not shown)", 6.89]
]}

-- ask Input O=C(O)c1ccc2c(c1)nc(-c1ccc(OCc3ccccc3)nc1)n2C1CCCCC1 , output reported pIC50.
-- reply 6.11

-- ask Supply measured pIC50 of O=C(O)c1ccc2c(c1)nc(-c1ccc(Oc3cccc(OCc4ccccc4)c3)cc1)n2C1CCCCC1 in your reply.
-- reply 7.12

-- ask Tell me its pIC50 given O=C(O)c1ccc2c(c1)nc(-c1ccc(OCCc3ccccc3)cc1)n2C1CCCC1 as the entry.
-- reply 6.21

-- ask Could you please provide reported pIC50 for O=C(O)c1ccc2c(c1)nc(-c1ccc(Oc3ccc(OCc4ccccc4)cc3)cc1Cl)n2C1CCCCC1 ? Thanks!
-- reply 6.82

-- ask Quickly give me recorded pIC50 for O=C(O)c1ccc2c(c1)nc(-c1ccc(/C=C/c3ccccc3)cc1)n2C1CCCCC1
-- reply 6.28

-- ask Give pIC50 for the following molecule: O=C(O[C@@H]1O[C@H](C(=O)O)[C@@H](O)[C@H](O)[C@H]1O)c1ccc2c(c1)nc(-c1ccc(OC(c3cccc(F)c3)c3cccc(F)c3)cc1F)n2C1CCCCC1
-- reply 6.48

----------
- target-entity: HCV polymerase (Hepatitis C virus genotype 1b, UniProt P26663)
- Construct: a region encoding NS5B (591 amino acids; J Virol 1991 Mar, 65(3), 1105-13) was amplified by PCR; 6 His (N); made in house; host or cells: Escherichia coli
- procedure-summary: biochemical
- experimental-setup: read-out: HCV polymerase inhibitory activity IC50
measurement-type: IC50 (nM)
Give the quantity in nM, number only.

{"columns": ["compound", "units", "value"],
 "data": [
  ["O=C(O)c1ccc2c(c1)nc(-c1ccc(OC3CCN(Cc4ccc(Cl)cc4)CC3)cc1)n2C1CCCCC1", "nM", 210]
]}

-- ask Specify reported IC50 for the compound shown: O=C(O)c1ccc2c(c1)nc(-c1ccc(Oc3cccc(OCC(=O)N4CCCCC4)c3)cc1)n2C1CCCCC1
-- reply 110

----------
- target-entity: HCV polymerase (Hepatitis C virus genotype 1b)
- Construct: a region encoding NS5B (591 amino acids; J Virol 1991 Mar, 65(3), 1105-13) was amplified by PCR; 6 His (N); made in house; host or cells: Escherichia coli
- procedure-summary: biochemical
- experimental-setup: read-out: HCV polymerase inhibitory activity IC50
Entries annotated with measured IC50
Just the number please, in nM, no unit attached.

{"columns": ["molecule", "IC50 (nM)"],
 "data": [
  ["CC(C)(C)NS(=O)(=O)c1ccc(-c2ccc(Cl)cc2)c(COc2ccc(-c3nc4cc(C(=O)O)ccc4n3C3CCCCC3)cc2)c1", 22]
]}

-- ask Quick one: give measured IC50 for O=C(O)c1ccc2c(c1)nc(-c1ccc(OCc3cc(Cl)ccc3-c3cccnc3)cc1)n2C1CCCCC1
-- reply 48

-- ask Provide measured IC50 value, entry: O=C(O)c1ccc2c(c1)nc(-c1cc(C(c3cccc(F)c3)c3cccc(F)c3)c(O)cc1F)n2C1CCCCC1
-- reply 70

-- ask For the molecule O=C(O)c1ccc2c(c1)nc(-c1ccc(OCCCCCc3ccccc3)cc1)n2C1CCCCC1 , report IC50.
-- reply 300

-- ask For the molecule Cc1nc(-c2ccc(C(=O)N(C)C)cc2)c(COc2ccc(-c3nc4cc(C(=O)O)ccc4n3C3CCCCC3)cc2)s1 , give its reported IC50.
-- reply 73

----------
List of pIC50 values.
- target-entity: HCV polymerase (Hepatitis C virus genotype 1b, UniProt P26663)
- Construct: a region encoding NS5B (591 amino acids; J Virol 1991 Mar, 65(3), 1105-13) was amplified by PCR; 6 His (N); made in house; host or cells: Escherichia coli
- procedure-summary: biochemical
- experimental-setup: read-out: HCV polymerase inhibitory activity IC50
Counter-ions that a name gives are not always drawn.
Scale: negative log10 of molar concentration, which is what pIC50 denotes.

Below are worked cases with known answers.
{"columns": ["compound", "target-entity", "pIC50"],
 "data": [
  ["O=C(O)c1ccc2c(c1)nc(-c1ccc(OC(c3ccc(Cl)cc3)c3ccc(Cl)cc3)cc1)n2C1CCCCC1 [Example 118]", "HCV polymerase (Hepatitis C virus genotype 1b, UniProt P26663)", 6.85],
  ["O=C(O)c1ccc2c(c1)nc(-c1ccc(OCc3cc(C(=O)NC4CC4)ccc3-c3ccc(Cl)cc3)cc1F)n2C1CCCCC1 [Example 377, hydrochloride]", "HCV polymerase (Hepatitis C virus genotype 1b, UniProt P26663)", 7.92],
  ["O=C(O)c1ccc2c(c1)nc(-c1ccc(OCc3cc(C4=NOS(=O)N4)ccc3-c3ccc(Cl)cc3)cc1F)n2C1CCCCC1 (stereo not drawn) [Example 375, hydrochloride]", "HCV polymerase (Hepatitis C virus genotype 1b, UniProt P26663)", 7.92],
  ["O=C(O)c1ccc2c(c1)nc(-c1ccc(OCc3cc(Cl)ccc3-c3ccccc3)cc1F)n2C1CCCCC1 [Example 146]", "HCV polymerase (Hepatitis C virus genotype 1b, UniProt P26663)", 7.37],
  ["CN(C)C(=O)c1ccc(-c2ccc(C(F)(F)F)cc2)c(COc2ccc(-c3nc4cc(C(=O)O)ccc4n3C3CCCCC3)cc2)c1 [Example 266, hydrochloride]", "HCV polymerase (Hepatitis C virus genotype 1b, UniProt P26663)", 7.74]
]}

Attention now shifts to the item below.
-- ask Give the measured pIC50 for O=C(O)c1ccc2c(c1)nc(-c1ccc(OCc3ccc(F)cc3C(=O)c3cccc(F)c3)cc1F)n2C1CCCCC1 [Example 256]
-- reply 7.10

----------
- target-entity: HCV polymerase (Hepatitis C virus genotype 1b)
- Construct: a region encoding NS5B (591 amino acids; J Virol 1991 Mar, 65(3), 1105-13) was amplified by PCR; 6 His (N); made in house; host or cells: Escherichia coli
- procedure-summary: biochemical
- experimental-setup: read-out: HCV polymerase inhibitory activity IC50
measurement-type: IC50 (nM)
Unit nM implied. Number only.

Consider the reported IC50 for these compounds:
{"columns": ["compound", "measurement-type", "units", "value"],
 "data": [
  ["O=C(O)c1ccc2c(c1)nc(-c1ccc(Oc3cccc(C(F)(F)F)c3)cc1)n2C1CCCCC1 [Example 230]", "IC50", "nM", 170],
  ["O=C(O)c1ccc(C(Oc2ccc(-c3nc4cc(C(=O)O)ccc4n3C3CCCCC3)c(F)c2)c2ccc(F)cc2)cc1 (stereo not shown) [Example 327]", "IC50", "nM", 19],
  ["O=C(O)c1ccc2c(c1)nc(-c1ccc(Oc3cccc(OCCc4ccccc4)c3)cc1)n2C1CCCCC1 [Example 124]", "IC50", "nM", 91]
]}

-- ask Return IC50 (reported value) for this compound: O=C(O)c1ccc2c(c1)nc(-c1ccc(OCCc3cccc4ccccc34)cc1)n2C1CCCCC1 [Example 103]
-- reply 170

----------
- target-entity: HCV polymerase (Hepatitis C virus genotype 1b)
- Construct: a region encoding NS5B (591 amino acids; J Virol 1991 Mar, 65(3), 1105-13) was amplified by PCR; 6 His (N); made in house; host or cells: Escherichia coli
- procedure-summary: biochemical
- experimental-setup: read-out: HCV polymerase inhibitory activity IC50
Where a name gives a salt, the structure may show the parent alone.
measurement-type: pIC50
Answer as the number alone; pIC50 is minus log10 of concentration in mol/L.

Known results for molecules:
{"columns": ["molecule", "pIC50"],
 "data": [
  ["CNc1nc(Oc2ccc(-c3nc4cc(C(=O)O)ccc4n3C3CCCCC3)cc2)nc(-c2cccc(Cl)c2)n1 [Example 236, trifluoroacetate]", 7.12],
  ["O=C(O)c1ccc2c(c1)nc(-c1ccc(OCc3cc(C(=O)NCc4ccccc4)ccc3-c3ccc(Cl)cc3)cc1)n2C1CCCCC1 [Example 316, hydrochloride]", 7.66]
]}

Now for a further molecule.
-- ask Specify pIC50 for CONC(=O)c1ccc(-c2ccc(Cl)cc2)c(COc2ccc(-c3nc4cc(C(=O)O)ccc4n3C3CCCCC3)c(F)c2)c1 [Example 382, hydrochloride] and stop.
-- reply 7.82

----------
- target-entity: HCV polymerase (Hepatitis C virus genotype 1b, UniProt P26663)
- Construct: a region encoding NS5B (591 amino acids; J Virol 1991 Mar, 65(3), 1105-13) was amplified by PCR; 6 His (N); made in house; host or cells: Escherichia coli
- procedure-summary: biochemical
- experimental-setup: read-out: HCV polymerase inhibitory activity IC50
Structures can show the parent of a compound that is named as a salt.
measurement-type: pIC50
The scale used: pIC50 is minus the common logarithm of the concentration in molar units.

Example compounds with recorded pIC50:
{"columns": ["compound", "target-entity", "pIC50"],
 "data": [
  ["O=C(O)c1ccc2c(c1)nc(-c1ccc(OCc3cc(S(=O)(=O)N4CCC(O)CC4)ccc3-c3ccc(Cl)cc3)cc1)n2C1CCCCC1 [Example 359, hydrochloride]", "HCV polymerase (Hepatitis C virus genotype 1b, UniProt P26663)", 7.82],
  ["O=C(O)c1ccc2c(c1)nc(-c1ccc(Oc3cccc(OCC4CCNCC4)c3)cc1)n2C1CCCCC1 [Example 161, hydrochloride]", "HCV polymerase (Hepatitis C virus genotype 1b, UniProt P26663)", 7.21],
  ["O=C(O)c1ccc2c(c1)nc(-c1ccc(OCc3ccccc3-c3ccc(C(F)(F)F)cc3)cc1F)n2C1CCCCC1", "HCV polymerase (Hepatitis C virus genotype 1b, UniProt P26663)", 7.34],
  ["CC(C)CCOc1cccc(Oc2ccc(-c3nc4cc(C(=O)O)ccc4n3C3CCCCC3)cc2)c1", "HCV polymerase (Hepatitis C virus genotype 1b, UniProt P26663)", 6.77],
  ["O=C(O)c1ccc2c(c1)nc(-c1ccc(OCc3cc(C(=O)N4CCCC4)ccc3-c3ccc(Cl)cc3)cc1F)n2N1CCCCC1", "HCV polymerase (Hepatitis C virus genotype 1b, UniProt P26663)", 7.77]
]}

-- ask Answer with the recorded pIC50 of O=C(O)c1ccc2c(c1)nc(-c1ccc(Oc3ccccc3OCC(=O)N3CCCCC3)cc1)n2C1CCCCC1 only.
-- reply 6.66

-- ask Using the record for CC(C)C(=O)N(C)c1ccc(-c2ccc(Cl)cc2)c(COc2ccc(-c3nc4cc(C(=O)O)ccc4n3C3CCCCC3)c(F)c2)c1 [Example 451, hydrochloride] , state its measured pIC50.
-- reply 7.51

-- ask // fetch pIC50 given entry CN(C)C(=O)c1ccc(-c2ccc(Cl)cc2)c(COc2ccc(-c3nc4cc(C(=O)O)ccc4n3C3CCCC3)c(F)c2)c1 [Example 410, hydrochloride]
-- reply 7.74

-- ask Indicate its recorded pIC50; the compound in question is O=C(O)c1ccc2c(c1)nc(-c1ccc(Oc3ccccc3Oc3ccccc3)cc1)n2C1CCCCC1
-- reply 6.85

-- ask Fill in pIC50 for record O=C(O)c1ccc2c(c1)nc(-c1ccc(Oc3cccc(OCc4ccccn4)c3)cc1)n2C1CCCCC1
-- reply 7.25

-- ask Quickly give me recorded pIC50 for CC(C)NC(=O)c1ccc(-c2ccc(F)cc2F)c(COc2ccc(-c3nc4cc(C(=O)O)ccc4n3C3CCCCC3)c(F)c2)c1 [Example 397, hydrochloride]
-- reply 7.43

-- ask Please look at this compound and report its pIC50: COc1ccc(-c2ccc(Cl)cc2)c(COc2ccc(-c3cc4cc(C(=O)O)ccc4n3C3CCCCC3)cc2)c1
-- reply 7.62
